From: PubChem BioAssay (NCI)

TGI overview
- System: SNB-75 CNS
- assay-info: NCI tumour cell line growth inhibition, 48 h
measurement-name: TGI

- compound: "Clc1cc(Cl)cc(-c2ccc(-c3ccc(/C=N/NC4=NCCN4)cc3)s2)c1"
  measurement-name: "TGI"
  recorded-measurement: "7.93 µM"
- compound: "CCN(CC)Cc1cc(Nc2c3ccc(Cl)cc3nc3ccc(OC)cc23)ccc1O"
  measurement-name: "TGI"
  recorded-measurement: "18.9 µM"
- compound: "O=C(COc1nc2ccccc2nc1-c1ccccc1)Nc1ccc(Cl)cc1"
  measurement-name: "TGI"
  recorded-measurement: "> 100 µM"
- compound: "O=C(/C=C/c1ccc(Cl)cc1)c1ccc(Nc2nc(Nc3ccc(F)cc3)nc(Nc3ccc(F)cc3)n2)cc1"
  measurement-name: "TGI"
  recorded-measurement: "> 100 µM"
- compound: "Clc1ccc(OCc2nn3c(CCCCc4nnc5sc(COc6ccc(Cl)cc6Cl)nn45)nnc3s2)c(Cl)c1"
  measurement-name: "TGI"
  recorded-measurement: "> 100 µM"
- compound: "O=C(CSc1nnc(SCC(=O)NN=C2CCCCC2)s1)NN=C1CCCCC1"
  measurement-name: "TGI"
  recorded-measurement: "> 100 µM"
- compound: "COc1cc(/C=N/n2c(-c3ccccc3)n[nH]c2=O)cc(OC)c1OC"
  measurement-name: "TGI"
  recorded-measurement: "> 30.2 µM"
- compound: "COc1cc([C@@H]2c3cc4c(cc3[C@@H](Nc3ccc(N=Cc5ccc(C(=O)O[C@@H](C(=O)O[C@H]6C[C@@]7(O)[C@@H](OC(=O)c8ccccc8)[C@@H]8[C@]9(OC(C)=O)CO[C@@H]9C[C@H](O)[C@@]8(C)C(=O)[C@H](OC(C)=O)C(=C6C)C7(C)C)[C@@H](NC(=O)c6ccccc6)c6ccccc6)cc5)cc3)[C@H]3COC(=O)[C@H]23)OCO4)cc(OC)c1O"
  measurement-name: "TGI"
  recorded-measurement: "37.2 µM"
- compound: "COC(=O)CN(CC1O[C@@H]2OC(C)(C)O[C@@H]2C1N=[N+]=[N-])C(=O)OCc1ccccc1 (stereo partly drawn)"
  measurement-name: "TGI"
  recorded-measurement: "> 100 µM"
- compound: "CNCCCCN(C)/[N+]([O-])=N\\O"
  measurement-name: "TGI"
  recorded-measurement: "> 100 µM"
- compound: "C=CCOC(C)n1c(C)cc(=O)n(C(C)OCC=C)c1=O (stereo not drawn)"
  measurement-name: "TGI"
  recorded-measurement: "> 100 µM"
- compound: "CCOC(=O)C1CCCCN1C(=O)OCc1ccccc1 (stereo not drawn)"
  measurement-name: "TGI"
  recorded-measurement: "> 100 µM"
- compound: "CN(C)CCNc1ccc2nnn3c4ccccc4c(=O)c1c23"
  measurement-name: "TGI"
  recorded-measurement: "10.4 µM"
- compound: "[N-]=[N+]=Nc1c(Cc2ccccc2)c(=O)oc2ccccc12"
  measurement-name: "TGI"
  recorded-measurement: "> 100 µM"
- compound: "CCOC(=O)/C=C(/C(=O)OCC)n1cc(C)c(=O)n(/C(=C/C(=O)OCC)C(=O)OCC)c1=O"
  measurement-name: "TGI"
  recorded-measurement: "24 µM"
- compound: "CC1=NC(C)(C)[N+]([O-])=C1"
  measurement-name: "TGI"
  recorded-measurement: "4.85 µM"
- compound: "CC(C)OC(=O)[C@@H]1OC(C)(C)O[C@H]1C(=O)OC(C)C"
  measurement-name: "TGI"
  recorded-measurement: "> 100 µM"
- compound: "COc1ccc(CC(C)=C(c2ccc(OCCN3CCCCCC3)cc2)c2ccc(OCCN3CCCCCC3)cc2)cc1"
  measurement-name: "TGI"
  recorded-measurement: "1.16 µM"
